Cited source: patent US20090149339A1

- TARGET OR TEST SYSTEM: GST-DVL1 PDZ domain fusion protein (human dishevelled segment polarity protein homolog AA248-340); PDZ domain … (human, UniProt P08515 1-218 = GST)
- Sequence (P08515 1-218, tags or fused parts left off): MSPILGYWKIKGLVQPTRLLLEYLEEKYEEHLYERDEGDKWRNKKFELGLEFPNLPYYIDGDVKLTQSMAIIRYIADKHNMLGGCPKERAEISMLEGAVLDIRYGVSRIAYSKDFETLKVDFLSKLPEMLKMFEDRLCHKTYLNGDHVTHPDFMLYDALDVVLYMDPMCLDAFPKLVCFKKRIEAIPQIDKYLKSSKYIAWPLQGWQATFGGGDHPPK
- PROTOCOL: A/G assays
Ends that are not written are not given here. * marks the point of attachment. Biotin = O=C1N[C@H]2[C@H](CS[C@H]2CCCCC(=O)*)N1

BINDER	binding result
Biotin-EVICYIEKPGVETLEDSVF [CDW125 (IL5R) C-terminal PL peptide AA28L, biotinylated]	no binding
Biotin-AWDDSARAAGGQGLHVTAL [LPAP C-terminal PL peptide AA30L, biotinylated]	no binding
Biotin-HKAEIHAQPSDKERLTSDA [CD49F (Aform, alpha 6) C-terminal PL peptide AA12L, biotinylated]	no binding
Biotin-SSSQSLESDGSYQKPSYIL [CD62E C-terminal PL peptide AA48L, biotinylated]	no binding
